Source listed as patent US9096536B2.

Tested on: human prostate cancer cell line LNCaP
Assay: Cytostatic activity in vitro, prostate cancer LNCaP
Format: cell-based
Conditions: 72 h continuous exposure
pIC50: −log10 of the molar value.
observed property: pIC50

[
  {
    "molecule": "CCN(CC)CCNc1ccc2c(=O)[nH]nc3c2c1C(=O)c1ccccc1-3 [PDZ-18]",
    "pIC50": 6.33
  },
  {
    "molecule": "CC(=O)Nc1ccc2c(=O)n(CCN(C)C)nc3c2c1C(=O)c1ccccc1-3 [PDZ-14]",
    "pIC50": 7.35
  },
  {
    "molecule": "CN(C)CCn1nc2c3c(c(NCCNCCO)ccc3c1=O)C(=O)c1ccccc1-2 [Compound C-165]",
    "pIC50": 8.09
  }
]

A. CN(C)CCn1nc2c3c(c(NCc4ccccc4)ccc3c1=O)C(=O)c1ccccc1-2 [PDZ-8]
B. CN(C)CCn1nc2c3c(c(NCCN)ccc3c1=O)C(=O)c1ccccc1-2 [BS-121]
Field: entry with larger pIC50 (options A / B ). Answer format: the label of the selected item. B
(B: 8.26, A: 6.17)

P. CN(C)CCCn1nc2c3c(c(N)ccc3c1=O)C(=O)c1ccccc1-2 [PDZ-3]
Q. CNc1ccc2c(=O)n(CCN(C)C)nc3c2c1C(=O)c1ccccc1-3 [PDZ-7]
Field: entry with larger pIC50 (options P / Q ). Answer format: the label of the selected item. Q
(Q: 7.18, P: 6.26)

I. Nc1ccc2c(=O)n(CCN3CCOCC3)nc3c2c1C(=O)c1ccccc1-3 [PDZ-4]
II. CCN(CC)CCNc1ccc2c(=O)n(CCN(C)C)nc3c2c1C(=O)c1ccccc1-3 [Compound C-155]
I'm curious, which of these has a smaller pIC50 number: I or II ? Answer format: the label of the selected item. I
(I: 5.55, II: 7.58)

---

Tested on: HL60/VINC
Assay: Cytostatic activity in vitro, vincristine-induced resistant subline (MDR-1)
Format: cell-based, human
Conditions: IC50(resistant cells)/IC50(sensitive cells), HL60/VINC vs HL60, 72 h
observed property: RI resistance index HL60/VINC
# answer = number (no unit)

[
  {
    "molecule": "CC(=O)NCCCNc1ccc2c(=O)n(CCN(C)C)nc3c2c1C(=O)c1ccccc1-3 [PDZ-13]",
    "observed property": "RI resistance index HL60/VINC",
    "measured": 32.4
  },
  {
    "molecule": "O=C1c2c(O)ccc(O)c2C(=O)c2c(NCCNCCO)ccc(NCCNCCO)c21 [Mitoxantrone, reference compound]",
    "observed property": "RI resistance index HL60/VINC",
    "measured": 31.3
  },
  {
    "molecule": "CN(C)CCNc1ccc2c(=O)n(CCO)nc3c2c1C(=O)c1ccccc1-3 [Compound C-167]",
    "observed property": "RI resistance index HL60/VINC",
    "measured": 3.5
  },
  {
    "molecule": "O=C1c2ccccc2-c2nn(CCN3CCCCC3)c(=O)c3ccc(NCCNCc4ccccc4)c1c23 [PDZ-17]",
    "observed property": "RI resistance index HL60/VINC",
    "measured": 4.9
  },
  {
    "molecule": "CCNCCNc1ccc2c(=O)n(CCN(C)C)nc3c2c1C(=O)c1ccccc1-3 [Compound C-180]",
    "observed property": "RI resistance index HL60/VINC",
    "measured": 4.0
  }
]

Fill in: HL60/VINC RI resistance index HL60/VINC for CCN(CC)CCNc1ccc2c(=O)n(CCN(C)C)nc3c2c1C(=O)c1ccccc1-3 [Compound C-155] = 6.1

Fill in: HL60/VINC RI resistance index HL60/VINC for CN(C)CCn1nc2c3ccccc3c3nn(CCN(C)C)c4ccc(c1=O)c2c34 [Compound C-163] = 1.5

Fill in: HL60/VINC RI resistance index HL60/VINC for CNCCNc1ccc2c(=O)n(CCN(C)C)nc3c2c1C(=O)c1ccccc1-3 [BS-154] = 9.0

Fill in: HL60/VINC RI resistance index HL60/VINC for CN(C)CCn1nc2c3c(c(NCCCN)ccc3c1=O)C(=O)c1ccccc1-2 [PDZ-20] = 9.6

Fill in: HL60/VINC RI resistance index HL60/VINC for CN(C)CCCNc1ccc2c(=O)[nH]nc3c2c1C(=O)c1ccccc1-3 [Compound C-131] = 0.9

Fill in: HL60/VINC RI resistance index HL60/VINC for COc1cccc2c1C(=O)c1c(O)c3c(c(O)c1C2=O)C[C@@](O)(C(=O)CO)C[C@@H]3O[C@H]1C[C@H](N)[C@H](O)[C@H](C)O1 [Doxorubicin, reference compound] = 55.1

Fill in: HL60/VINC RI resistance index HL60/VINC for Nc1ccc2c(=O)n(CCN3CCOCC3)nc3c2c1C(=O)c1ccccc1-3 [PDZ-4] = 1.2

Fill in: HL60/VINC RI resistance index HL60/VINC for Nc1ccc2c(=O)n(CCN3CCCCC3)nc3c2c1C(=O)c1ccccc1-3 [PDZ-5] = 1.8

Fill in: HL60/VINC RI resistance index HL60/VINC for CCCCNCCNc1ccc2c(=O)[nH]nc3c2c1C(=O)c1ccccc1-3 [PDZ-9] = 1.8

Fill in: HL60/VINC RI resistance index HL60/VINC for CCN(CC)CCNc1ccc2c(=O)[nH]nc3c2c1C(=O)c1ccccc1-3 [PDZ-18] = 5.2

Fill in: HL60/VINC RI resistance index HL60/VINC for CC(CNc1ccc2c(=O)n(CC(C)N(C)C)nc3c2c1C(=O)c1ccccc1-3)N(C)C (stereo not shown) [Compound C-123] = 6.7

---

System: human prostate cancer cell line LNCaP
Assay: Cytostatic activity in vitro, prostate cancer LNCaP
Format: cell-based
Conditions: 72 h continuous exposure
observed property: IC50 (nM)

Use the examples below as a reference point.
[
  {
    "molecule": "O=C1c2ccccc2-c2n[nH]c(=O)c3ccc(NCCNCc4ccccc4)c1c23 [PDZ-10]",
    "unit label": "nM",
    "IC50": 1550
  },
  {
    "molecule": "CC(=O)NCCCNc1ccc2c(=O)n(CCN(C)C)nc3c2c1C(=O)c1ccccc1-3 [PDZ-13]",
    "unit label": "nM",
    "IC50": 50.7
  }
]

a. CN(C)CCCNc1ccc2c(=O)[nH]nc3c2c1C(=O)c1ccccc1-3 [Compound C-131]
b. O=C1c2ccccc2-c2nn(CCN3CCCCC3)c(=O)c3ccc(NCCNCc4ccccc4)c1c23 [PDZ-17]
Field: entry with larger IC50 (options a / b ). Answer format: the label of the selected item. a
(a: 927 nM, b: 166 nM)

---

Tested on: human promyelocytic leukemia cell line HL-60
Experiment: Cytostatic activity in vitro, HL-60 sensitive line
Format: cell-based
Details: Homo sapiens, HL-60; 96 h continuous exposure; read-out: HL60 IC50
observed property: pIC50
Please express pIC50 as -log10 of the molar concentration.

Field pIC50 (entry COc1cccc2c1C(=O)c1c(O)c3c(c(O)c1C2=O)C[C@@](O)(C(=O)CO)C[C@@H]3O[C@H]1C[C@H](N)[C@H](O)[C@H](C)O1 [Doxorubicin, reference compound] ) reads 8.02

---

Tested on: CT-DNA
Test: Interaction with isolated CT-DNA, fluorescence competition with ethidium bromide
Type: binding
Conditions: 50% decrease in fluorescence intensity of DNA-bromide ethydine complex
observed property: IC50 (nM)

[
  {
    "compound": "CN(C)CCn1nc2c3c(c(NCc4ccccc4)ccc3c1=O)C(=O)c1ccccc1-2",
    "assay target": "CT-DNA",
    "observed property": "IC50",
    "measured": 7290
  },
  {
    "compound": "CCCCNCCNc1ccc2c(=O)[nH]nc3c2c1C(=O)c1ccccc1-3",
    "assay target": "CT-DNA",
    "observed property": "IC50",
    "measured": 2100
  }
]

P. CN(C)CCn1nc2c3c(cccc3c1=O)C(=O)c1ccccc1-2
Q. CCN(CC)CCNc1ccc2c(=O)n(CCN(C)C)nc3c2c1C(=O)c1ccccc1-3
R. CC(=O)Nc1ccc2c(=O)n(CCN(C)C)nc3c2c1C(=O)c1ccccc1-3
S. Nc1ccc2c(=O)n(CCN3CCOCC3)nc3c2c1C(=O)c1ccccc1-3
T. O=C1c2ccccc2-c2nn(CCN3CCCCC3)c(=O)c3ccc(NCCNCc4ccccc4)c1c23
# ascending order, key=IC50 Form field (ranking): labels in requested order. Q, T, R, P, S
(Q: 310 nM, T: 460 nM, R: 990 nM, P: 3080 nM, S: 16800 nM)

I. CN(C)CCn1nc2c3c(c(NCCN)ccc3c1=O)C(=O)c1ccccc1-2
II. O=C1c2ccccc2-c2n[nH]c(=O)c3ccc(NCCNCc4ccccc4)c1c23
Field: entry with larger IC50 (options I / II ). Answer format: the label of the selected item. II
(II: 3150 nM, I: 260 nM)

A. CC(CNc1ccc2c(=O)n(CC(C)N(C)C)nc3c2c1C(=O)c1ccccc1-3)N(C)C (stereo not drawn)
B. CCN(CC)CCNc1ccc2c(=O)[nH]nc3c2c1C(=O)c1ccccc1-3
C. CC(=O)[C@]1(O)Cc2c(O)c3c(c(O)c2[C@@H](O[C@H]2C[C@H](N)[C@H](O)[C@H](C)O2)C1)C(=O)c1ccccc1C3=O [Idarubicin, reference compound]
D. COc1cccc2c1C(=O)c1c(O)c3c(c(O)c1C2=O)C[C@@](O)(C(=O)CO)C[C@@H]3O[C@H]1C[C@H](N)[C@H](O)[C@H](C)O1 [Doxorubicin, reference compound]
# ascending order, key=IC50 Form field (ranking): labels in requested order. D, A, C, B

1. CN(C)CCn1nc2c3ccccc3c3nn(CCN(C)C)c4ccc(c1=O)c2c34
2. CN(C)CCn1nc2c3c(c(NCC(=O)N(C)C)ccc3c1=O)C(=O)c1ccccc1-2
I'm curious, which of these has a smaller IC50 number: 1 or 2 ? Answer format: the label of the selected item. 1
(1: 230 nM, 2: 2640 nM)
